// reported activity, negative = inhibition for each item listed
target: Cytochrome P450 2C19 (Homo sapiens); test: Cytochrome panel assay with activity outcomes; conditions: recombinant CYP, pro-luciferin dealkylation, luminescence, p450-cyp2c19; series mostly up to 57.1 µM; as to activity, negative = inhibition: % is scaled to controls: 0 for no effect and ±100 for the full control effect
The campaign covered roughly 16,000 compounds. About 5,800 (36%) were called active. Another 23% or so got no clear call; they are omitted. This is one part of the list.
testReadout: activity, negative = inhibition

{"inputSmiles": "Cn1c(=O)c2[nH]c(CCCc3ccc([N+](=O)[O-])cc3)nc2n(C)c1=O", "targetEntity": "Cytochrome P450 2C19 (Homo sapiens)", "testReadout": "activity, negative = inhibition", "value": "6.48% [at 11.4 µM] (inactive)"}
{"inputSmiles": "O=S(=O)(C[C@H](O)C(Cl)(Cl)Cl)NNc1ccccc1", "targetEntity": "Cytochrome P450 2C19 (Homo sapiens)", "testReadout": "activity, negative = inhibition", "value": "-25.2% [at 11.4 µM] (inactive)"}
{"inputSmiles": "CN(C)CCSCCO", "targetEntity": "Cytochrome P450 2C19 (Homo sapiens)", "testReadout": "activity, negative = inhibition", "value": "28.5% [at 11.4 µM] (inactive)"}
{"inputSmiles": "CCN1C(=O)[C@H]2[C@@H]3[C@H](O)C=CC(=O)[C@H]3CC[C@H]2C1=O", "targetEntity": "Cytochrome P450 2C19 (Homo sapiens)", "testReadout": "activity, negative = inhibition", "value": "-2.48% [at 11.4 µM] (inactive)"}
{"inputSmiles": "CN1CCN(c2nc3c(c(=O)n(C)c(=O)n3C)n2C)CC1", "targetEntity": "Cytochrome P450 2C19 (Homo sapiens)", "testReadout": "activity, negative = inhibition", "value": "-9.69% [at 11.4 µM] (inactive)"}
{"inputSmiles": "NC1=N[C@H](c2ccc(Cl)cc2)N(c2ccc(S(=O)(=O)Nc3ncccn3)cc2)C(N)=N1", "targetEntity": "Cytochrome P450 2C19 (Homo sapiens)", "testReadout": "activity, negative = inhibition", "value": "8.72% [at 11.4 µM] (inactive)"}
{"inputSmiles": "C[C@@H](c1ccccc1)N1C(=O)[C@@H]2[C@H]3C(=CC[C@H]2C1=O)C(=O)[C@H]1O[C@H]1[C@H]3O", "targetEntity": "Cytochrome P450 2C19 (Homo sapiens)", "testReadout": "activity, negative = inhibition", "value": "18.8% [at 11.4 µM] (inactive)"}
{"inputSmiles": "c1ccc(CCNc2ccccn2)nc1", "targetEntity": "Cytochrome P450 2C19 (Homo sapiens)", "testReadout": "activity, negative = inhibition", "value": "10.5% [at 11.4 µM] (inactive)"}
{"inputSmiles": "Cn1c(=O)c2c(ncn2CN2CCN(Cn3cnc4c3c(=O)n(C)c(=O)n4C)CC2)n(C)c1=O", "targetEntity": "Cytochrome P450 2C19 (Homo sapiens)", "testReadout": "activity, negative = inhibition", "value": "-11.6% [at 11.4 µM] (inactive)"}
{"inputSmiles": "N[C@@H](Cc1cccc([N+](=O)[O-])c1)C(=O)O", "targetEntity": "Cytochrome P450 2C19 (Homo sapiens)", "testReadout": "activity, negative = inhibition", "value": "-6.46% [at 11.4 µM] (inactive)"}
{"inputSmiles": "OCCCNCc1ccccn1", "targetEntity": "Cytochrome P450 2C19 (Homo sapiens)", "testReadout": "activity, negative = inhibition", "value": "31.9% [at 11.4 µM] (inactive)"}

----------
target: Cytochrome P450 2C19 (Homo sapiens) (UniProt P33261); assay: Cytochrome panel assay with activity outcomes; settings: recombinant CYP, pro-luciferin dealkylation, luminescence, p450-cyp2c19; series mostly up to 57.1 µM
Sequence (P33261 whole entry, looked up): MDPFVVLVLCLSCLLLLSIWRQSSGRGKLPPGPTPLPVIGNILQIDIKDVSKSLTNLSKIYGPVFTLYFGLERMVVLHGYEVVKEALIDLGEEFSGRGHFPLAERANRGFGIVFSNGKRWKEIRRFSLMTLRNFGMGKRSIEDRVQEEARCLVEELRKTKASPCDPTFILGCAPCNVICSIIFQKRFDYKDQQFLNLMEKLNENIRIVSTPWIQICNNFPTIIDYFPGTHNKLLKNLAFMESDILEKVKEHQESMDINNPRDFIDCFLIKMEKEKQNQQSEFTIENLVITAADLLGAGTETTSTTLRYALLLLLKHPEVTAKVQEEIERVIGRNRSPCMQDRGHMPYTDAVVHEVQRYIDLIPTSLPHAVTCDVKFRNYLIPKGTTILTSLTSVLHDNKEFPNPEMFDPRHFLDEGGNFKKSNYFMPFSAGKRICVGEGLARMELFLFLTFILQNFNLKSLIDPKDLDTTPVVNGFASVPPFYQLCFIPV
About 5,800 (36%) of roughly 16,000 compounds were called active. Not shown: some 23% with an inconclusive outcome. The call rests on the fitted dose curve; in most records, active means well fitted curve in the direction sought with a large enough effect; inconclusive means small, poorly fitted or top-dose-only effect, or effect the other way; inactive means no such curve, though single readings can be large or run the other way. This is one part of the list.
Classes used: active, inactive

{"inputSmiles": "CCN(CC)CCOc1ccc2nc(N(C)C)sc2c1", "classLabel": "inactive"}
{"inputSmiles": "c1cn(-c2ncnc3ccc(-c4ccoc4)cc23)cn1", "classLabel": "active"}
{"inputSmiles": "CCOC(=O)c1c(C(C)(C)C)oc2ccc(O)cc12", "classLabel": "active"}
{"inputSmiles": "Cc1cc2[nH]c(=O)c3ccccc3n2n1", "classLabel": "inactive"}
{"inputSmiles": "Nc1nonc1-c1nc2ccccc2n1Cc1ccc(F)cc1Cl", "classLabel": "active"}
{"inputSmiles": "Clc1ncccc1-c1nc2ccccc2n1Cc1ccccc1", "classLabel": "active"}
{"inputSmiles": "C[C@@](N)(Cc1ccc(O)cc1)C(=O)O", "classLabel": "inactive"}
{"inputSmiles": "CN1CCN(c2cc(-c3ccc(N(C)C)cc3)ncn2)CC1", "classLabel": "inactive"}
{"inputSmiles": "CCOC(=O)C1CCN(C(=O)C2CCN(c3nc4ccc(OC)cc4s3)CC2)CC1", "classLabel": "active"}
{"inputSmiles": "N#Cc1ccccc1-c1ccc2ncnc(N3CCNCC3)c2c1", "classLabel": "inactive"}
{"inputSmiles": "Cc1cccc(N2CCN(c3ccc(NC(=O)/C=C(/C(=O)O)c4ccccc4)cc3)CC2)c1", "classLabel": "active"}
{"inputSmiles": "Clc1ccc(Cn2c(-c3cccnc3Cl)nc3ccccc32)c(Cl)c1", "classLabel": "active"}

----------
molecular target: Cytochrome P450 2C19 (Homo sapiens) (UniProt P33261); assay: Cytochrome panel assay with activity outcomes; details: recombinant CYP, pro-luciferin dealkylation, luminescence, p450-cyp2c19; series mostly up to 57.1 µM
Among all 16,000 compounds or so, about 5,800 (36%) were called active. Inconclusive results (about 23%) are left out. The call rests on the fitted dose curve; in most records, active means well fitted curve in the direction sought with a large enough effect; inconclusive means small, poorly fitted or top-dose-only effect, or effect the other way; inactive means no such curve, though single readings can be large or run the other way. This is one part of the list.
Outcomes: active, inactive

{"molecule": "C=CCSC[C@@H]1Nc2cc(Cl)c(S(N)(=O)=O)cc2S(=O)(=O)N1", "classLabel": "inactive"}
{"molecule": "O=C(O)CCC(=O)N1CCOc2ccc(Cl)cc21", "classLabel": "inactive"}
{"molecule": "CC(C)[C@@H]1NC(=O)[C@H](CCCCN)NC(=O)[C@H](Cc2c[nH]c3ccccc23)NC(=O)[C@H](Cc2ccc(O)cc2)NC(=O)[C@H](C)N(C)C(=O)[C@H](Cc2ccccc2)NC1=O", "classLabel": "inactive"}
{"molecule": "Cc1ccc(N2C(=O)CSC2c2cccnc2)cc1F (configuration not stated)", "classLabel": "active"}
{"molecule": "CC(C)Cn1c(SCC(=O)c2c(N)n(C)c(=O)n(C)c2=O)nc2ccccc21", "classLabel": "active"}
{"molecule": "O=c1c(-c2ccc(O)cc2)coc2cc(O)ccc12", "classLabel": "active"}
{"molecule": "Cc1cc(Cl)ccc1OCCCC(=O)N1CCN(C)CC1", "classLabel": "active"}
{"molecule": "Cc1cccc(NC(=O)CCS(=O)(=O)c2cccc3nsnc23)c1C", "classLabel": "active"}
{"molecule": "Cc1nc(SCC(=O)c2cc3ccccc3oc2=O)c(C#N)c(C)c1C(=O)Nc1ccccc1", "classLabel": "inactive"}
{"molecule": "O=c1[nH]c2cc([N+](=O)[O-])c([N+](=O)[O-])cc2[nH]c1=O", "classLabel": "inactive"}
{"molecule": "COc1cccc(-c2nccc(NCc3ccccc3)n2)c1", "classLabel": "active"}
{"molecule": "CC(C)(CO)[C@H](O)C(=O)NCCCO", "classLabel": "inactive"}
{"molecule": "COc1cc(CNCc2ccccn2)ccc1OCc1ccc(Cl)cc1Cl", "classLabel": "active"}
{"molecule": "CCOC(=O)COc1c(OC)cc(Cl)cc1C1Nc2ccccc2C(=O)N1c1cccc(C)c1 (configuration not stated)", "classLabel": "active"}
{"molecule": "Cc1ccc(CS(=O)(=O)CCC(=O)NCc2ccccn2)cc1", "classLabel": "inactive"}
{"molecule": "Cc1sc(NC(=O)C2CCCCC2)c(C#N)c1-c1ccccc1", "classLabel": "active"}
{"molecule": "OC[C@H]1NC[C@H](O)[C@@H](O)[C@H]1O", "classLabel": "inactive"}
{"molecule": "CCNc1nc(Sc2ccc(C)cc2)cc(C(F)(F)F)n1", "classLabel": "active"}
{"molecule": "CCNC(=O)NC(=O)CSc1nc2ccccc2n1CC(C)C", "classLabel": "active"}
{"molecule": "Cc1ccc(/C=C2\\SC(=S)N(CCCC(=O)Nc3ccccn3)C2=O)cc1", "classLabel": "active"}
{"molecule": "FC(F)(F)c1cc(Sc2ccccc2)nc(-c2ccccn2)n1", "classLabel": "inactive"}
{"molecule": "O=C(CCS(=O)(=O)c1cccc2nsnc12)NC1CCCCC1", "classLabel": "active"}

----------
target: Cytochrome P450 2C19 (Homo sapiens) (UniProt P33261); test: Cytochrome panel assay with activity outcomes; details: recombinant CYP, pro-luciferin dealkylation, luminescence, p450-cyp2c19; series mostly up to 57.1 µM
Among all 16,000 compounds or so, about 5,800 (36%) were called active. Roughly 23% stayed inconclusive and do not appear here. Calls follow the shape of the dose curve; as a rule, active = well fitted curve in the direction sought with a large enough effect; inconclusive = small, poorly fitted or top-dose-only effect, or effect the other way; inactive = no such curve, though single readings can be large or run the other way. This is one part of the list.
Labels: t = active, f = inactive

{"molecule": "CCn1cnc2sc(C(=O)N3CCN(c4ccc(OC)cc4)CC3)c(C)c2c1=O", "classLabel": "t"}
{"molecule": "O=C(c1cc2sccc2n1Cc1ccccc1)N1CCN(c2nc3ccccc3s2)CC1", "classLabel": "t"}
{"molecule": "N=c1n(CCN2CCOCC2)c2ccccc2n1CC(=O)c1ccc(Cl)c(Cl)c1", "classLabel": "t"}
{"molecule": "CCOC(=O)c1c(NC(=O)Cn2nc([N+](=O)[O-])c(Br)c2C)sc2c1CCC(C)C2 (stereo unspecified)", "classLabel": "t"}
{"molecule": "CN(C)c1ncc2nc(-c3ccc(F)cc3)c(=O)n(C3CC3)c2n1", "classLabel": "f"}
{"molecule": "COc1ncc2ncc(=O)n(C3CC3)c2n1", "classLabel": "f"}
{"molecule": "CCCCOc1ccc(C(=O)CCN2CCCCC2)cc1", "classLabel": "f"}
{"molecule": "Cc1ccc(NC(=O)CCC(=O)c2ccc(F)cc2)cc1Cl", "classLabel": "t"}
{"molecule": "CN(C)c1ccc(O)c2c1C[C@H]1C[C@H]3[C@@H](N(C)C)C(=O)C(C(N)=O)=C(O)[C@]3(O)C(=O)C1=C2O", "classLabel": "f"}
{"molecule": "CCCN(C/C=C\\I)[C@@H]1CCc2cccc(O)c2C1", "classLabel": "f"}
{"molecule": "CCOC(=O)c1c(NC(=O)CSc2nnc(C)s2)sc2c1CCCCC2", "classLabel": "t"}
{"molecule": "O=C1NCCN1Cc1ccccc1F", "classLabel": "t"}
{"molecule": "COc1c(C)c2c(c(O)c1C/C=C(\\C)CCC(=O)O)C(=O)OC2", "classLabel": "f"}
{"molecule": "CN1C(=C2C(=O)OC(C)(C)OC2=O)Sc2ccccc21", "classLabel": "t"}
{"molecule": "CNC[C@H](O)[C@H](O)[C@H](O)[C@H](O)CO", "classLabel": "f"}
{"molecule": "CCn1c(-c2ccc(N(C)C)cc2)nc2ccccc21", "classLabel": "t"}
{"molecule": "CCCC[C@H](CC)CN1CN(C[C@@H](CC)CCCC)CC(C)(N)C1", "classLabel": "f"}
{"molecule": "CCOC(=O)c1c(NC(=O)c2ccc(S(=O)(=O)N3CCOCC3)cc2)sc2c1CCN(C)C2", "classLabel": "f"}
{"molecule": "COCC(C)NCc1cccc(C)c1 (stereo unspecified)", "classLabel": "f"}
{"molecule": "NCCCCCc1nnc(SCc2ccc(Cl)cc2Cl)o1", "classLabel": "t"}
{"molecule": "CCOC(=O)c1c(NC(=S)NC(=O)c2cnn(CC)c2)sc2c1CCC(C)C2 (stereo unspecified)", "classLabel": "f"}
{"molecule": "CCOC(=O)c1c(NC(=O)Cn2cc([N+](=O)[O-])cn2)sc2c1CCC2", "classLabel": "t"}
{"molecule": "CC(=C/c1ccccc1)/C=N/n1cnnc1", "classLabel": "t"}
{"molecule": "COc1ccc(Oc2ncc3nc(CCc4ccccc4)c(=O)n(C4CC4)c3n2)cc1", "classLabel": "t"}
{"molecule": "Cc1nc2cnc(N(C)C)nc2n(C)c1=O", "classLabel": "f"}
{"molecule": "COc1ccccc1NC(=O)[C@H](COCc1ccccc1)NC(=O)OC(C)(C)C", "classLabel": "t"}
{"molecule": "C=CC[n+]1c(-c2ccc(C)cc2)csc1NNC(=O)Nc1ccccc1", "classLabel": "t"}
{"molecule": "Cc1ccc(NCCC(=O)c2ccc(Cl)cc2)cc1C", "classLabel": "t"}
{"molecule": "COc1ccc(-c2nc3cnc(N4CCNCC4)nc3n(C)c2=O)cc1", "classLabel": "f"}
{"molecule": "CCOC(=O)c1c(NC(=O)c2c(C)noc2C)sc2c1CCCCC2", "classLabel": "f"}
{"molecule": "Fc1ccc(-c2cnc(-c3cccs3)o2)cc1", "classLabel": "t"}
{"molecule": "Cc1cc(C)n2nc(-c3sccc3-n3cccc3)cc2n1", "classLabel": "t"}
{"molecule": "COc1ncc2nc(-c3cccs3)c(=O)n(C)c2n1", "classLabel": "f"}
{"molecule": "CCOc1cc(C#N)c(NC(=O)c2cccnc2)cc1OCC", "classLabel": "f"}
{"molecule": "CC(C)(C=O)Cc1cc(C(C)(C)C)c(O)c(C(C)(C)C)c1", "classLabel": "f"}
{"molecule": "Cc1ccc(OCCOCCn2ccnc2)c(Br)c1", "classLabel": "t"}
{"molecule": "O=C(O)CC/C=C\\C[C@@H]1CO[C@H](c2ccccc2Cl)O[C@@H]1c1ccccc1O", "classLabel": "f"}
{"molecule": "OC[C@@H]1O[C@@H](n2cnc3cncnc32)[C@@H](O)[C@H]1O", "classLabel": "f"}
{"molecule": "Cc1nc2cnc(N(C)C)nc2n(C2CC2)c1=O", "classLabel": "f"}
{"molecule": "CCOC(=O)c1c(N2C(=O)Nc3cc(Cl)c(Cl)cc3N2O)sc2c1CCCCC2", "classLabel": "f"}
{"molecule": "CCN(CC)c1nc(Nc2ccccc2)nc(Oc2ccc(C(=O)OC)cc2)n1", "classLabel": "t"}
{"molecule": "Cc1cccc(OCCCCCn2ccnc2)c1", "classLabel": "t"}
{"molecule": "COC(=O)Cn1c(=N)n(CCN2CCCCC2)c2ccccc21", "classLabel": "f"}
{"molecule": "CC1(C)CC(=O)c2c(Cc3ccccc3)n[nH]c2C1", "classLabel": "t"}
{"molecule": "O=C1O[C@H](CN2CCOCC2)CN1/N=C\\c1ccc([N+](=O)[O-])o1", "classLabel": "f"}
{"molecule": "CCc1ccc(NC(=O)Cn2nc(C(F)(F)F)c3c2CCC3)cc1", "classLabel": "t"}
